Measured EC50 of individual entries
biological target: Transient receptor potential cation channel subfamily V member 4 (Mus musculus, UniProt Q9EPK8); assay: Agonist activity at mouse TRPV4
Sequence (Q9EPK8 whole entry): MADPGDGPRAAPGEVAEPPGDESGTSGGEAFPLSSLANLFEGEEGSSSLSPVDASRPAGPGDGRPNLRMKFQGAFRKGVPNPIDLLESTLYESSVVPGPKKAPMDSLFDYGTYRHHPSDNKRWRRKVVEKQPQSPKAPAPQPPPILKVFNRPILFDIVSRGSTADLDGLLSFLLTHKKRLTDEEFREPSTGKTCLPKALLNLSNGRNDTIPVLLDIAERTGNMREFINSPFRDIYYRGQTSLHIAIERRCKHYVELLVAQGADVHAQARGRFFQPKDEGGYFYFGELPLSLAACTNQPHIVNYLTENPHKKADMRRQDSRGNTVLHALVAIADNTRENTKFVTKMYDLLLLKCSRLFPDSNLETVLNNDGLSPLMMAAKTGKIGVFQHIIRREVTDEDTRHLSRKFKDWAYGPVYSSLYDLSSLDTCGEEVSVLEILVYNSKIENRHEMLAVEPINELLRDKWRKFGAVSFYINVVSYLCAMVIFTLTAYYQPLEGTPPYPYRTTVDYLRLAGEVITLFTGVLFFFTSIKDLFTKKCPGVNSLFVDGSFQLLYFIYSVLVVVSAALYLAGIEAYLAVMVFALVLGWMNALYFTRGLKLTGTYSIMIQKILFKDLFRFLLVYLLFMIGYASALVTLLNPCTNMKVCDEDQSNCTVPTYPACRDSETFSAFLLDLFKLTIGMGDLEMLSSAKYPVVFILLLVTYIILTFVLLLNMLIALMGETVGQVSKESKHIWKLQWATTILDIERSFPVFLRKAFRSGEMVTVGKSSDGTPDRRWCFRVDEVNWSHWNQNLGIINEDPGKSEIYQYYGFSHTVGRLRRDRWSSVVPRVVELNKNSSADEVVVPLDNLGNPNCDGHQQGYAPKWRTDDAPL
property label: EC50 (nM)

molecule=O=[N+]([O-])c1cc(Cl)ccc1S(=O)(=O)N1CCN(Cc2ccccc2)CC1 numeric_readout=770
molecule="CCCCC/C=C\\C/C=C\\C/C=C\\CC1OC1CCCC(=O)O (configuration not stated)" numeric_readout=150
